Reported Inhibition of KA-Induced Rundown of AMPA Current, Minimal Effective Concentration values for the following molecules.
# System: AMPA receptors
# experimental-protocol: Voltage whole-cell recording: inhibition of KA-induced rundown of AMPA current in acutely dissociated prefrontal cortical neurons
# Assay type: cell-based, rats
# measurement-context: KA 200 μM; rat PFC neurons; whole-cell voltage clamp, held at −60 mV; 0.1 μM was the lowest concentration tested
metric-name: Inhibition of KA-Induced Rundown of AMPA Current, Minimal Effective Concentration (µM)

chem_smiles=Cc1cccc(-n2nc(C)c(-c3cc(C)n[nH]3)c2O)c1 numeric_value=1.0
chem_smiles=Cc1cc(-c2c(C)nn(-c3ccccc3)c2O)[nH]n1 numeric_value=1.0
chem_smiles=Cc1cc(-c2c(C)nn(-c3cccc(Cl)c3)c2O)[nH]n1 numeric_value=1.0
